Entry source: ChEMBL document CHEMBL1150675

Test system: Raji
Experiment: Inhibition of TPA-induced EBV-early antigen activation in human Raji cells assessed as early antigen activation at 3.2 nmol after 48 hrs relative to control
Type: cell-based
Parameters: scale not given: the % may be the effect or the level left
Settings: human gammaherpesvirus 4
experimental endpoint: Activity (%)

>  <molecule>
C/C=C(\C)C(=O)c1c(OC)c2c(c3c(CCC)cc(=O)oc13)OC(C)(C)C=C2

>  <unit string>
%

>  <observed value>
62.5

$$$$
>  <molecule>
CCCc1cc(=O)oc2c(C(=O)C(C)CC)c(O)c(CC=C(C)C)c(O)c12 (stereo not drawn)

>  <unit string>
%

>  <observed value>
50.6

$$$$
>  <molecule>
CCC(C)C(=O)c1c(O)c2c(c3c(-c4ccccc4)cc(=O)oc13)OC(C(C)(C)O)C2 (stereo not drawn) [BRASIMARIN B]

>  <unit string>
%

>  <observed value>
71.6

$$$$
>  <molecule>
CCCc1cc(=O)oc2c(C(=O)c3ccccc3)c(O)c3c(c12)OC(C)(C)C=C3 [BRASIMARIN A]

>  <unit string>
%

>  <observed value>
72.1

$$$$
>  <molecule>
CCCc1cc(=O)oc2c3c(c4c(c12)OC(C)(C)C=C4)O[C@H](C)[C@H](C)[C@@H]3O [CALANOLIDE C]

>  <unit string>
%

>  <observed value>
74

$$$$
>  <molecule>
CC(C)=CCc1c2c(c3oc(=O)cc(-c4ccccc4)c3c1O)C(=O)[C@H](C)[C@@H](C)O2 [BRASIMARIN C]

>  <unit string>
%

>  <observed value>
70.2

$$$$
>  <molecule>
CCCc1cc(=O)oc2c3c(c4c(c12)OC(C)(C)C=C4)O[C@H](C)[C@@H](C)[C@@H]3O [CALANOLIDE A]

>  <unit string>
%

>  <observed value>
66.6

$$$$
>  <molecule>
CC1(C)C=Cc2c(O)c(C(=O)c3ccccc3)c3oc(=O)cc(-c4ccccc4)c3c2O1 [CALANONE]

>  <unit string>
%

>  <observed value>
73.1

$$$$

###

Experiment: Cytotoxicity against human Raji cells assessed as cell viability at 32 nmol after 48 hrs by trypan blue staining
Assay type: cell-based
Conditions: read-out: Activity
Parameter: viability at 48 h, 32 nmol. Scope: all listed entries.

>  <compound>
C/C=C(\C)C(=O)c1c(OC)c2c(c3c(CCC)cc(=O)oc13)OC(C)(C)C=C2

>  <viability at 48 h, 32 nmol>
60%

$$$$
>  <compound>
CCCc1cc(=O)oc2c3c(c4c(c12)OC(C)(C)C=C4)O[C@H](C)[C@H](C)[C@@H]3O [CALANOLIDE C]

>  <viability at 48 h, 32 nmol>
70%

$$$$
>  <compound>
CCCc1cc(=O)oc2c(C(=O)c3ccccc3)c(O)c3c(c12)OC(C)(C)C=C3 [BRASIMARIN A]

>  <viability at 48 h, 32 nmol>
70%

$$$$
>  <compound>
CCC(C)C(=O)c1c(O)c2c(c3c(-c4ccccc4)cc(=O)oc13)OC(C(C)(C)O)C2 (stereo not drawn) [BRASIMARIN B]

>  <viability at 48 h, 32 nmol>
70%

$$$$
>  <compound>
CC(C)=CCc1c2c(c3oc(=O)cc(-c4ccccc4)c3c1O)C(=O)[C@H](C)[C@@H](C)O2 [BRASIMARIN C]

>  <viability at 48 h, 32 nmol>
70%

$$$$
>  <compound>
CCCc1cc(=O)oc2c3c(c4c(c12)OC(C)(C)C=C4)O[C@H](C)[C@@H](C)[C@@H]3O [CALANOLIDE A]

>  <viability at 48 h, 32 nmol>
60%

$$$$
>  <compound>
CC1(C)C=Cc2c(O)c(C(=O)c3ccccc3)c3oc(=O)cc(-c4ccccc4)c3c2O1 [CALANONE]

>  <viability at 48 h, 32 nmol>
70%

$$$$
>  <compound>
CCCc1cc(=O)oc2c(C(=O)C(C)CC)c(O)c(CC=C(C)C)c(O)c12 (stereo not drawn)

>  <viability at 48 h, 32 nmol>
60%

$$$$
